Assignment: determine reported pIC50 for the given compounds.
# TESTED_TARGET: CDK2/Cyclin E complex (Homo sapiens)
# METHOD_NOTES: CDK2/Cyclin E fluorescence-based microfluidic mobility shift assay (CDK2 Biochemical Caliper Assay)
# TEST_CONTEXT: read-out: Biochemical CDK2/CyclinE Caliper IC50
pIC50: −log10 of the molar value.

Read off the recorded pIC50 for Cc1cc(CC(=O)Nc2cc(-c3csc4cncnc34)[nH]n2)on1 [Example 240]
4.00 to 6.00

Read off the recorded pIC50 for CC(C)NC(=O)OC[C@H]1C[C@@H](c2cc(NC(=O)c3cc(COC(C)C)nn3C)n[nH]2)C1 [Example 652]
≥ 7.00

Read off the recorded pIC50 for COCc1cc(C(=O)Nc2cc([C@H]3CC[C@@](C)(CC(=O)NC(C)C)C3)[nH]n2)n(C)n1 (single isomer, unassigned) [Example 419]
4.00 to 6.00

Read off the recorded pIC50 for Cc1ccc(O[C@@H]2CC[C@H](c3cc(NC(=O)Cc4cc(C)no4)n[nH]3)C2)nn1 [Example 397]
6.00 to 6.60

###

# TESTED_TARGET: CDK2/Cyclin E complex (Homo sapiens, UniProt P24941)
# METHOD_NOTES: CDK2/Cyclin E fluorescence-based microfluidic mobility shift assay (CDK2 Biochemical Caliper Assay)
# TEST_CONTEXT: read-out: Biochemical CDK2/CyclinE Caliper IC50
OBSERVABLE: IC50

Read off the recorded IC50 for Cc1cc(CC(=O)Nc2cc([C@@H]3CC[C@H](N(C)C(=O)NC(C)C)C3)[nH]n2)on1 (single isomer, unassigned) [Example 103]
1000 to 100000 nM

Read off the recorded IC50 for COCc1cc(C(=O)Nc2cc([C@H]3CC[C@@H](c4ccc(C)nn4)C3)[nH]n2)n(C)n1 (single isomer, unassigned) [Example 572]
1000 to 100000 nM

Read off the recorded IC50 for c1cncc(OC[C@H]2C[C@@H](c3cc(Nc4nccn5nccc45)n[nH]3)C2)c1 [Example 536]
≤ 100 nM

Read off the recorded IC50 for COCc1cc(C(=O)Nc2cc([C@H]3C[C@]4(CN(CC(C)C)C(=O)N4)C3)[nH]n2)n(C)n1 [Example 515]
1000 to 100000 nM

Read off the recorded IC50 for COCc1cc2c(Nc3cc([C@H]4C[C@@H](OC(=O)N[C@H]5C[C@H]5C)CO4)[nH]n3)nccn2n1 [Example 775]
≤ 100 nM

Read off the recorded IC50 for Cc1cc(CC(=O)Nc2ncc([C@@H]3CC[C@H](OC(=O)NC(C)C)C3)s2)on1 (single isomer, unassigned) [Example 443]
≤ 100 nM

Read off the recorded IC50 for CC(C)n1cnnc1O[C@H]1CO[C@@H](c2cc(Nc3nccn4nccc34)n[nH]2)C1 [Example 784]
≤ 100 nM

Read off the recorded IC50 for COCc1cc(C(=O)Nc2cc([C@@H]3CC[C@H](Oc4ncccc4C(C)C)C3)[nH]n2)n(C)n1 (single isomer, unassigned) [Example 507]
≤ 100 nM

Read off the recorded IC50 for COc1cnc2c(Nc3cc(C4CCCC4)[nH]n3)nccc2c1 [Example 804]
1000 to 100000 nM

Read off the recorded IC50 for COCc1cc2c(Nc3cc([C@H]4C[C@@H](COc5nncn5C5(C)CC5)C4)[nH]n3)nccn2n1 [Example 690]
≤ 100 nM

Read off the recorded IC50 for CC1(NC(=O)O[C@H]2CO[C@@H](c3cc(Nc4ncnn5cccc45)n[nH]3)C2)CC1 [Example 722]
≤ 100 nM

Read off the recorded IC50 for COCc1cc(C(=O)Nc2cc([C@H]3CC[C@@H](Oc4nccnc4C(C)C)C3)[nH]n2)n(C)n1 (single isomer, unassigned) [Example 508]
≤ 100 nM

Read off the recorded IC50 for COCc1nc2ccnc(Nc3cc([C@H]4CC[C@@H](Oc5nnccc5C(C)C)C4)[nH]n3)c2s1 (single isomer, unassigned) [Example 444]
≤ 100 nM

Read off the recorded IC50 for Cc1cc(CC(=O)Nc2cc([C@H]3CC[C@@H](NC(N)=O)C3)[nH]n2)on1 (racemic) [Example 10]
250 to 1000 nM

Read off the recorded IC50 for COCc1cc(C(=O)Nc2cc([C@@H]3CC[C@H](Oc4ccccc4)C3)[nH]n2)n(C)n1 (single isomer, unassigned) [Example 365]
250 to 1000 nM

Read off the recorded IC50 for CC(C)NC(=O)O[C@@H]1CC[C@H](c2cc(N)n[nH]2)C1 (single isomer, unassigned) [Example 417]
1000 to 100000 nM

Read off the recorded IC50 for CC(C)c1ccnnc1OC[C@H]1C[C@H](c2cc(Nc3nccn4nccc34)n[nH]2)C1 [Example 489]
250 to 1000 nM

Read off the recorded IC50 for COCc1cc2c(Nc3cc([C@H]4C[C@@H](OC(=O)NC5(C6CC6)CC5)CO4)[nH]n3)nccn2n1 [Example 702]
≤ 100 nM

Read off the recorded IC50 for CC1(NC(=O)O[C@H]2CO[C@@H](c3cc(Nc4ncnc5[nH]ccc45)n[nH]3)C2)CC1 [Example 738]
250 to 1000 nM

Read off the recorded IC50 for Cc1cc(CC(=O)Nc2cc([C@H]3CC[C@@H](Oc4ccccc4C(C)C)C3)[nH]n2)on1 (single isomer, unassigned) [Example 389]
250 to 1000 nM

Read off the recorded IC50 for O=C1COc2ncnc(Nc3cc(C4CCCC4)[nH]n3)c2N1 [Example 831]
1000 to 100000 nM

Read off the recorded IC50 for Cn1nc(C=O)cc1C(=O)Nc1cc([C@H]2C[C@@H](OC(=O)NC3(C)CC3)CO2)[nH]n1 [Example 883]
≤ 100 nM

Read off the recorded IC50 for COCc1cc(C(=O)Nc2cc([C@@H]3CC[C@H](Oc4nscc4C4CC4)C3)[nH]n2)n(C)n1 (single isomer, unassigned) [Example 413]
≤ 100 nM

Read off the recorded IC50 for COCc1cc(C(=O)Nc2cc([C@H]3CC[C@@H](Oc4cc(C(C)C)cnn4)C3)[nH]n2)n(C)n1 (single isomer, unassigned) [Example 492]
≤ 100 nM

Read off the recorded IC50 for COCc1cc2c(Nc3cc([C@@H]4CC[C@H](Oc5cccnc5C)C4)[nH]n3)nccn2n1 (single isomer, unassigned) [Example 512]
100 to 250 nM

Read off the recorded IC50 for COCc1cc2c(Nc3cc([C@H]4C[C@@H](OC(=O)N[C@H]5CC5(C)C)CO4)[nH]n3)nccn2n1 [Example 677]
≤ 100 nM

Read off the recorded IC50 for COCc1cc(C(=O)Nc2cc([C@H]3CC[C@@H](Oc4ccc(C(C)C)nn4)C3)[nH]n2)n(C)n1 (single isomer, unassigned) [Example 415]
250 to 1000 nM
